Test system: NCI-H2122 cells
Assay: NCI-H2122 CTG proliferation assay (120 h) (NSCLC, G12C)
Assay type: cell-based
Settings: Homo sapiens
Procedure: NCI-H2122 CTG Proliferation Assay (120 h) (NSCLC, G12C) The CTG assay is designed to measure quantitatively the proliferation of NCI-H2122 cells (ATCC CRL-5985), using the CellTiter Glow Assay Kit (Promega G7571). […] Plates are incubated for 120 h, and cell viability is measured using CellTiter-Glo luminescent cell viability reagent (Promega product code G7570). […] IC50 values are determined from viability measurements by non-linear regression using a four parameter model.
Experimental endpoint: log10 IC50 (log10 of the value in nM)
Field: value | Transform: log10 | Quantity: IC50 | Unit: nM

Before answering, review these 10 worked examples.
1. C[C@H](Oc1cc(-n2ccncc2=O)nc(-c2noc3c2CCC[C@@]32CCCc3sc(N)c(C#N)c32)n1)[C@@H]1CCCN1C [II-116] = 3.05
2. C[C@H](Oc1cc(N2CCNC[C@]23CCOC3)nc(-c2onc3c2CCC[C@@]32CCCc3sc(N)c(C#N)c32)n1)[C@@H]1CCCN1C [I-12] = 3.52
3. C[C@H](Oc1cc(-n2ccc(C(=O)NC3COC3)n2)nc(-c2noc3c2CCC[C@@]32CCCc3sc(N)c(C#N)c32)n1)[C@@H]1CCCN1C [II-25] = 1.52
4. C[C@H](Oc1cc(N2CCN(C)C3(CC3)C2)nc(-c2noc3c2CCC[C@@]32CCCc3sc(N)c(C#N)c32)n1)[C@@H]1CCCN1C [II-171] = 3.49
5. C[C@H]1CNCCCN1c1cc(-c2ccn(C)n2)nc(-c2noc3c2CCC[C@@]32CCCc3sc(N)c(C#N)c32)n1 [II-140] = 3.92
6. C[C@H](Oc1cc(-c2ccn(CC(C)(C)O)n2)nc(-c2onc3c2CCC[C@@]32CCCc3sc(N)c(C#N)c32)n1)[C@@H]1CCCN1C [I-26] = 3.03
7. C[C@H](Oc1cc(Cl)nc(-c2onc3c2CCC[C@@]32CCCc3sc(N)c(C#N)c32)n1)[C@@H]1CCCN1C [I-1] = 3.61
8. C[C@H](Oc1cc([C@H]2CCN(C)C2)nc(-c2noc3c2CCC[C@@]32CCCc3sc(N)c(C#N)c32)n1)[C@@H]1CCCN1C [II-38] = 3.41
9. C[C@H](Oc1cc(N2C[C@H](C)NC3(CC3)C2)nc(-c2onc3c2CCC[C@@]32CCCc3sc(N)c(C#N)c32)n1)[C@@H]1CCCN1C [I-8] = 3.48
10. C[C@H](Oc1cc(-c2cn(C3COC3)nn2)nc(-c2noc3c2CCC[C@@]32CCCc3sc(N)c(C#N)c32)n1)[C@@H]1CCCN1C [II-100] = 3.33

Give log10 IC50 for each listed item.
1. CO[C@@H]1C[C@@H]([C@H](C)Oc2cc(-n3ccnc3)nc(-c3noc4c3CCC[C@@]43CCCc4sc(N)c(C#N)c43)n2)N(C)C1 [II-58]
2. C[C@H](Oc1cc(-c2cnn(C)n2)nc(-c2noc3c2CCC[C@@]32CCCc3sc(N)c(C#N)c32)n1)[C@@H]1CCCN1C [II-86]
3. C[C@H]1CNCCCN1c1cc(-n2ccnc2)nc(-c2noc3c2CCC[C@@]32CCCc3sc(N)c(C#N)c32)n1 [II-142]

2.96
3.32
4.02

* * *

Field: IC50. Provide a value for each of the molecules that follow.
System: GP2D cells
Experiment: GP2D proliferation assay (120 h) (colorectal cancer, G12D)
Type: cell-based
One number for each entry, in nM.

Before answering, review these 3 worked examples.
1) C[C@H](Oc1cc(N2CCN(C)C2=O)nc(-c2noc3c2CCC[C@@]32CCCc3sc(N)c(C#N)c32)n1)[C@@H]1CCCN1C [II-75] = 111
2) C[C@H](Oc1cc(-c2ccn(C3COC3)n2)nc(-c2onc3c2CCC[C@@]32CCCc3sc(N)c(C#N)c32)n1)[C@@H]1CCCN1C [I-34] = 872
3) C[C@H](O)Cn1ccc(-c2cc(O[C@@H](C)[C@@H]3CCCN3C)nc(-c3onc4c3CCC[C@@]43CCCc4sc(N)c(C#N)c43)n2)n1 [I-31] = 588

Give IC50 for each listed item.
1. C[C@H](Oc1cc([C@@H]2CCOC2)nc(-c2onc3c2CCC[C@@]32CCCc3sc(N)c(C#N)c32)n1)[C@@H]1CCCN1C [I-22]
2. C[C@H](Oc1cc(N2C[C@H](C)N[C@@H](C)C2)nc(-c2noc3c2CCC[C@@]32CCCc3sc(N)c(C#N)c32)n1)[C@@H]1CCCN1C [II-56]
3. C[C@H](Oc1nc(-c2noc3c2CCC[C@@]32CCCc3sc(N)c(C#N)c32)nc(N2CCN(C)C3(CC3)C2)c1Cl)[C@@H]1C[C@@H](F)CN1C [II-176]

1: 27; 2: 13; 3: 50

* * *

Biological target: KRAS (WT)::SOS1 (Homo sapiens (Human), UniProt P01116, C118S)
Sequence (P01116 other isoform, or with tags, fused parts or gaps C118S): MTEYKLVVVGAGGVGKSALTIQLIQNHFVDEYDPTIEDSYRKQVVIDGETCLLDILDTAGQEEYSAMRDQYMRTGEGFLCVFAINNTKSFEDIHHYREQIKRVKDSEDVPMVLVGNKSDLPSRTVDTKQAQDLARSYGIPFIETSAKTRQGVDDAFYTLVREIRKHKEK
Experiment: KRAS::SOS1 AlphaScreen binding assay, KRAS WT
Field: pIC50. Provide a value for each of the compounds that follow.
Numbers only, as −log10 of the molar value.

1) C[C@H](Oc1cc(N2C[C@H](C)NC3(CC3)C2)nc(-c2noc3c2CCC[C@@]32CCCc3sc(N)c(C#N)c32)n1)[C@@H]1C[C@@H](F)CN1C = 8.22
2) C[C@H](Oc1cc(-n2ccnc2)nc(-c2noc3c2CCC[C@@]32CCCc3sc(N)c(C#N)c32)n1)[C@@H]1CCCN1C = 8.52
3) C[C@H](Oc1cc(-n2ccc(C(=O)N[C@H]3CCOC3)n2)nc(-c2noc3c2CCC[C@@]32CCCc3sc(N)c(C#N)c32)n1)[C@@H]1CCCN1C = 8.22
4) C[C@H](Oc1cc(N2CCN(C)C3(COC3)C2)nc(-c2onc3c2CCC[C@@]32CCCc3sc(N)c(C#N)c32)n1)[C@@H]1C[C@@H](F)CN1C = 8.40
5) C[C@H](Oc1cc(-c2cncnc2)nc(-c2noc3c2CCC[C@@]32CCCc3sc(N)c(C#N)c32)n1)[C@@H]1CCCN1C = 7.44

Give pIC50 for each listed item.
1. C[C@H](Oc1cc(N2CCNC3(COC3)C2)nc(-c2noc3c2CCC[C@@]32CCCc3sc(N)c(C#N)c32)n1)[C@@H]1C[C@@H](F)CN1C
2. C[C@H](Oc1cc(C2=CCNCC2)nc(-c2noc3c2CCC[C@@]32CCCc3sc(N)c(C#N)c32)n1)[C@@H]1CCCN1C
3. CO[C@H]1CCN(C)[C@@H]1[C@H](C)Oc1cc(-n2ccc(C(=O)N[C@@H](C)c3ccccn3)n2)nc(-c2noc3c2CCC[C@@]32CCCc3sc(N)c(C#N)c32)n1
4. C[C@H](Oc1cc(-c2ccn(C[C@@H](C)O)n2)nc(-c2onc3c2CCC[C@@]32CCCc3sc(N)c(C#N)c32)n1)[C@@H]1CCCN1C
5. C[C@H](Oc1cc(N2CCNC3(CCC3)C2)nc(-c2onc3c2CCC[C@@]32CCCc3sc(N)c(C#N)c32)n1)[C@@H]1CCCN1C
6. C[C@H](Oc1cc(-c2ccn([C@H]3CCCOC3)n2)nc(-c2noc3c2CCC[C@@]32CCCc3sc(N)c(C#N)c32)n1)[C@@H]1CCCN1C

1: 8.52; 2: 8.10; 3: 8.22; 4: 8.52; 5: 8.15; 6: 8.30

Give pIC50 for each listed item.
1. C[C@H](Oc1cc(-n2cc3c(n2)CNC3)nc(-c2noc3c2CCC[C@@]32CCCc3sc(N)c(C#N)c32)n1)[C@@H]1CCCN1C
2. C[C@H](Oc1cc(-c2ccncc2)nc(-c2noc3c2CCC[C@@]32CCCc3sc(N)c(C#N)c32)n1)[C@@H]1CCCN1C
3. C[C@H](Oc1cc(-c2ccn3ncnc3c2)nc(-c2noc3c2CCC[C@@]32CCCc3sc(N)c(C#N)c32)n1)[C@@H]1CCCN1C

1. 8.52
2. 8.15
3. 8.40

Give pIC50 for each listed item.
1. C[C@H](Oc1nc(-c2onc3c2CCC[C@@]32CCCc3sc(N)c(C#N)c32)cc(N2CCNC3(CC3)C2)n1)[C@@H]1CCCN1C
2. C[C@H](Oc1cc(N2CCNC2=O)nc(-c2noc3c2CCC[C@@]32CCCc3sc(N)c(C#N)c32)n1)[C@@H]1CCCN1C

1. 7.38
2. 8.70

* * *

Field: HLM QH. Provide a value for each of the compounds that follow.
Experiment: Metabolic (microsomal) stability assay, human liver microsomes (HLM)
Assay type: in vitro ADME
Conditions: predicted clearance as percent of liver blood flow, 1 μM
Protocol: The metabolic degradation of the test compound is assayed at 37° C. with pooled liver microsomes (mouse (MLM), rat (RLM) or human (HLM)). […] Additionally, the NADPH-independent degradation is monitored in incubations without NADPH, terminated at the last time point by addition of acetonitrile. […] An aliquot of the supernatant is assayed by LC-MS/MS to quantify the concentration of parent compound in the individual samples. […]
Numbers only, in %.

Before answering, review these 3 worked examples.
1) C[C@H](Oc1cc(-c2ccccn2)nc(-c2noc3c2CCC[C@@]32CCCc3sc(N)c(C#N)c32)n1)[C@@H]1CCCN1C [II-85] = 47
2) C[C@H](Oc1cc(N2CCNC2=O)nc(-c2noc3c2CCC[C@@]32CCCc3sc(N)c(C#N)c32)n1)[C@@H]1CCCN1C [II-64] = 27
3) CO[C@@H]1C[C@@H]([C@H](C)Oc2cc(N3CCN(C)C4(CC4)C3)nc(-c3onc4c3CCC[C@@]43CCCc4sc(N)c(C#N)c43)n2)N(C)C1 [I-50] = 44

Shifting focus to the compound that follows.
Consider the compound shown here: C[C@H](Oc1cc(N2CCCC2=O)nc(-c2noc3c2CCC[C@@]32CCCc3sc(N)c(C#N)c32)n1)[C@@H]1CCCN1C [II-73] What is its recorded HLM QH?
53

Entry source: patent US20240174690A1
